Biological target: human mAChR M4 (Homo sapiens)
Construct: expressed in transfected cells
Sequence (P08173 1-479): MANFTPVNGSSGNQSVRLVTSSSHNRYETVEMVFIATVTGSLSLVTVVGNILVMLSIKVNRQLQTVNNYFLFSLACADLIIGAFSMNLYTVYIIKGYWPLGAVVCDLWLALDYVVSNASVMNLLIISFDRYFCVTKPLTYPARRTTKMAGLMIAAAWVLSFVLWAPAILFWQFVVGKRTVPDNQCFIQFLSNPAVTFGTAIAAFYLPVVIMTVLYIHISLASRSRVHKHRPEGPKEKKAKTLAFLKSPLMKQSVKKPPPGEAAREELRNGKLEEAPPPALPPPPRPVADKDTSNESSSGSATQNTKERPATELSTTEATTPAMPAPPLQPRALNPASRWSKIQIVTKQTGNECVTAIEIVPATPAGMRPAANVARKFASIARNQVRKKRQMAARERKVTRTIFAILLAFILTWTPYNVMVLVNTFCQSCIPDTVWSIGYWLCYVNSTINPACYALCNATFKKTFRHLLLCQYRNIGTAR
Assay: mAChR M4 cell-based functional assay (calcium mobilization, CHO-K1 hM4-Gqi5 cells)
Details: CHO-K1, % ACh maximum at 30 μM; human M4
assay_endpoint: Emax at 30 µM (%)

INSERT INTO measurements (compound, assay_endpoint, reported_result) VALUES
  ('Cc1cc(C#N)cnc1N1Cc2cc(N3CCOCC3)cnc2C(C)C1 (stereo not drawn)', 'Emax at 30 µM', 83);

(a) Cc1c(C#N)nnc(N2CCc3ncc(-c4cccnc4F)cc3C2)c1C
(b) Cc1cc(C(=O)NCc2cncs2)cnc1N1CCc2ncc(C(F)(F)F)cc2C1
Please state the entry with greater Emax at 30 µM among a and b . Output the label that corresponds to your choice.
b
(b: 107%, a: 70%)

* * *

target: human mAChR M4 (Homo sapiens, UniProt P08173); construct: expressed in transfected cells; experiment: mAChR M4 cell-based functional assay (calcium mobilization, CHO-K1 hM4-Gqi5 cells); conditions: CHO-K1, % ACh maximum at 30 μM; human M4
assay_endpoint: Emax at 30 µM (%)

In the examples that follow, each entry is paired with its recorded Emax at 30 µM.
INSERT INTO results (compound, reported_result) VALUES
  ('Cc1cc(C#N)cnc1N1CCc2ncc(-c3cn(C)nc3C)cc2C1', 95),
  ('Cc1cc(C(=O)N2CC(F)C2)nnc1N1CCc2ncc(-n3cccn3)cc2C1', 75),
  ('Cc1cc(C(=O)NCc2ccc3nn[nH]c3c2)cnc1N1CCc2ncccc2C1', 61);

(a) Cc1c(C#N)nnc(N2CCc3ncc(Nc4ccc(Cl)cc4F)cc3C2)c1C
(b) Cc1c(C#N)nnc(N2CCc3ncc(N4CCO[C@H](c5ccccc5)C4)cc3C2)c1C
(c) Cc1cc(F)c(F)cc1-c1cnc2c(c1)CN(c1nnc(C#N)cc1C)CC2
Returns the items ordered by Emax at 30 µM, from maximum to minimum. Labels, ranked as asked.
b, c, a
(b: 90%, c: 54%, a: 34%)

(I) Cc1ccccc1Nc1cnc2c(c1)CN(c1nnc(C#N)c(C)c1C)CC2
(II) CNC(=O)c1ccc(CNC(=O)c2cnc(N3CCc4ncccc4C3)c(C)c2)cc1
I'm curious whether I or II has the smaller Emax at 30 µM number. Which is it? Output the label that corresponds to your choice.
II

* * *

Reported Emax values for the following compounds.
biological target: human mAChR M4 (Homo sapiens); construct: expressed in transfected cells; test: mAChR M4 cell-based functional assay (calcium mobilization, CHO-K1 hM4-Gqi5 cells); settings: CHO-K1
Report the figure in % without appending any unit label.

INSERT INTO assay_data (compound, assay_endpoint, reported_result) VALUES
  ('Cc1ccc2c(n1)CCN(c1nnc(C#N)cc1C)C2 [Example 605]', 'Emax', 106);

Documented Emax of Cc1cc(C#N)cnc1N1CCc2ncccc2C1 [compound 45] : 97

Documented Emax of Cc1nc(Cl)c(C)c(N2CCc3ncc(C4CC4)cc3C2)n1 [compound 225] : 87

Documented Emax of Cc1nc(Cl)c(C)c(N2CCc3ncccc3C2)n1 [compound 83] : 77

Documented Emax of Cc1nc(Cl)c(C)c(N2Cc3cc(N)cnc3C(C)(C)C2)n1 [compound 219] : 37

Documented Emax of Cc1nc(Cl)c(C)c(N2Cc3cc(Br)cnc3C(C)(C)C2)n1 [compound 236] : 29

Documented Emax of Cc1cc(C#N)nnc1N1CCc2ncc(C3CC3)cc2C1 [Example 393] : 88

Documented Emax of Cc1cnc2c(c1)CN(c1ncc(C#N)cc1C)CC2 [compound 179] : 98

Documented Emax of Cc1cc(C#N)nnc1N1CCc2ncc(C(F)F)cc2C1 [Example 309] : 96

Documented Emax of Cc1cnc2c(c1)CN(c1nc(C)nc(Cl)c1C)CC2 [compound 209] : 95

Documented Emax of COC(=O)c1cnc(N2CCc3ncccc3C2)c(C)c1 [compound 71] : 102

Documented Emax of Cc1cc(C#N)cnc1N1CCc2ncc(C3CC3)cc2C1 [Example 330] : 85

Documented Emax of Cc1nc(Cl)c(C)c(N2Cc3cc(N)cnc3C(C)C2)n1 (centres unmarked) [compound 255] : 88

Documented Emax of Cc1nc(Cl)c(C)c(N2CCc3ncc(C(F)F)cc3C2)n1 [compound 215] : 93

Documented Emax of COC(=O)c1cnc(N2CCc3ncc(Br)cc3C2)c(C)c1 [compound 133] : 100

Documented Emax of Cc1nc(Cl)c(C)c(N2CCc3ncc(N)cc3C2)n1 [compound 213] : 94

Documented Emax of [2H]C([2H])([2H])c1cnc2c(c1)CN(c1nnc(C#N)cc1C)CC2 [Example 421] : 89

Documented Emax of Cc1c(C#N)nnc(N2CCc3ncccc3C2)c1C [compound 118] : 92

Documented Emax of Cc1cc(C#N)cnc1N1CCc2ncc(Nc3cccnc3F)cc2C1 [compound 166] : 106

* * *

target: human mAChR M4 (Homo sapiens); construct: expressed in transfected cells; assay: mAChR M4 cell-based functional assay (calcium mobilization, CHO-K1 hM4-Gqi5 cells); settings: positive allosteric modulator activity, increase in the EC20 acetylcholine response, CHO-K1 hM4-Gqi5 cells; read-out: Human M4 EC50
pEC50: −log10 of the molar value.
assay_endpoint: pEC50

In the examples that follow, each entry is paired with its recorded pEC50.
INSERT INTO measurements (compound, system_name, reported_result) VALUES
  ('Cc1cc(C#N)nnc1N1CCc2ncc(Oc3cc(F)ccc3F)cc2C1', 'human mAChR M4 (Homo sapiens)', 6.90),
  ('Cc1cc(C(=O)N2CC(C)(F)C2)nnc1N1CCc2ncc(N3CCCn4nccc43)cc2C1', 'human mAChR M4 (Homo sapiens)', 7.80),
  ('Cc1nc(Cl)c(C)c(N2Cc3cc(-c4cn(C)nc4C)cnc3C(C)(C)C2)n1', 'human mAChR M4 (Homo sapiens)', 6.09),
  ('Cc1c(C#N)nnc(N2CCc3ncc(C(C)(O)C(F)(F)F)cc3C2)c1C (centres unmarked)', 'human mAChR M4 (Homo sapiens)', 6.21),
  ('[2H]C([2H])([2H])c1cnc2c(c1)CN(c1nnc(C(=O)NC3(c4cccnc4)CC3)cc1C)CC2', 'human mAChR M4 (Homo sapiens)', 6.97);

(a) Cc1c(C#N)nnc(N2CCc3ncc(Nc4ccccc4C(F)(F)F)cc3C2)c1C
(b) Cc1c(C#N)nnc(N2CCc3ncc(-c4ccc(C5CC5)nc4)cc3C2)c1C
Please state the entry with greater pEC50 among a and b . Output the label that corresponds to your choice.
b
(b: 6.58, a: 5.94)

(P) Cc1c(C#N)nnc(N2CCc3ncc(N4CC(C)Cn5nccc54)cc3C2)c1C (centres unmarked)
(Q) Cc1cc(F)ncc1-c1cnc2c(c1)CN(c1nnc(C#N)c(C)c1C)CC2
(R) Cc1cc(C(=O)N2CC3(C2)CC(F)(F)C3)nnc1N1CCc2ncc(N3CCCn4nccc43)cc2C1
(S) Cc1cc(C(=O)N2CC(CO)(CO)C2)nnc1N1CCc2ncc(CC(F)(F)F)cc2C1
(T) Cc1cc(C(=O)NCc2ccnc3ccccc23)cnc1N1CCc2ncccc2C1
Returns the items ordered by pEC50, from maximum to minimum. Labels, ranked as asked.
R, P, S, T, Q

(a) [2H]C1([2H])Cc2ncc(Nc3cccnc3C)cc2C([2H])([2H])N1c1nnc(C#N)cc1C
(b) Cc1c(C#N)nnc(N2CCc3ncc(-c4ccc(Cl)nc4)cc3C2)c1C
(c) Cc1cc(C(=O)N2CC3CC3C2)nnc1N1CCc2ncc(C(F)(F)F)cc2C1 (centres unmarked)
(d) Cc1cc(C(=O)N2CC(C)C2)nnc1N1CCc2ncc(N3CCCn4nccc43)cc2C1
Returns the items ordered by pEC50, from maximum to minimum. Labels, ranked as asked.
d, a, b, c
(d: 7.25, a: 6.80, b: 6.44, c: 5.41)

(I) Cc1ncc(-c2cnc3c(c2)CN(c2ncc(C#N)cc2C)CC3)s1
(II) Cc1cnc2c(c1)CN(c1ncc(C(=O)Nc3ccncc3)cc1C)CC2
Please state the entry with greater pEC50 among I and II . Output the label that corresponds to your choice.
I

(a) Cc1cc(C#N)cnc1N1CCc2ncc(-c3cccnc3)cc2C1
(b) Cc1cc(C(=O)NCc2ccc3c(c2)COC3)cnc1N1CCc2ncccc2C1
(c) Cc1nc(C)c(C)c(N2CCc3ncc(Nc4ccnn4C)cc3C2)n1
(d) Cc1cc(C#N)cnc1N1CCc2ncc(N3CCCn4nc(C(C)(C)C)cc43)cc2C1
Could you please order the items by pEC50, going from the lowest number to the highest? Labels, ranked as asked.
b, d, a, c

(A) Cc1cc(C(=O)NCc2nccs2)cnc1N1CCc2ncc(-c3cccnc3F)cc2C1
(B) Cc1cc(Nc2cnc3c(c2)CN(c2nnc(C#N)c(C)c2C)CC3)c(F)cn1
I'm curious whether A or B has the smaller pEC50 number. Which is it? Output the label that corresponds to your choice.
A

(a) Cc1cc(C(=O)N2CC(F)(F)C2)nnc1N1CCc2ncc(Nc3ccnn3C)cc2C1
(b) Cc1cc(C#N)cnc1N1CCc2ncc(-c3ccnc(C4CC4)c3)cc2C1
I'm curious whether a or b has the smaller pEC50 number. Which is it? Output the label that corresponds to your choice.
b

(P) Cc1cc(C(=O)N2CCC(c3ccncc3)C2)nnc1N1CCc2ncc(N3CCCn4nccc43)cc2C1 (centres unmarked)
(Q) Cc1cc(C#N)cnc1N1CCc2ncc(Cc3ccccc3F)cc2C1
(R) Cc1cc(C#N)nnc1N1CCc2ncc(C(F)(F)F)cc2C1
Returns the items ordered by pEC50, from maximum to minimum. Labels, ranked as asked.
P, Q, R
(P: 7.01, Q: 6.45, R: 6.17)

Value source: patent US20250230155A1
